target: σ2 sites (Rattus norvegicus); construct: Crude P2 membranes were prepared from guinea pig brain, rat brain, or rat liver; from tissue; host or cells: rat liver (crude P2 membranes); experiment: σ2 receptor competition binding; conditions: Table 5, dopamine transporter ligands
reportedEndpoint: pKi
Here pKi is given on a logarithmic scale as minus log10 of the concentration in mol/L.

Query: Look at this compound and give its reported pKi. Fc1ccc(C(OCCN2CCN(CCCc3ccccc3)CC2)c2ccc(F)cc2)cc1 [GBR 12909, reference compound]
Result: 6.88

====

target: σ2 sites (Rattus norvegicus, UniProt Q5U3Y7); construct: Crude P2 membranes were prepared from guinea pig brain, rat brain, or rat liver; from tissue; host or cells: rat liver (crude P2 membranes); assay: σ2 receptor competition binding; settings: Table 4, second series; [3H]DTG plus dextrallorphan, rat liver
Sequence (Q5U3Y7 whole entry): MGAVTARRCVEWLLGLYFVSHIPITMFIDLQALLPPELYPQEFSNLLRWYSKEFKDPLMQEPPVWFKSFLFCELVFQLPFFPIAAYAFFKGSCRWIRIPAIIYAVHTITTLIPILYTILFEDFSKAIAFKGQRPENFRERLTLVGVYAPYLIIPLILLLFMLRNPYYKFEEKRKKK
Consider the following molecules; for each one, report its pKi.
Here pKi is given on a logarithmic scale as minus log10 of the concentration in mol/L.

Query: Look at this molecule and give its reported pKi. "COc1ccc(CC(=O)N2CCN(CCCc3ccccc3)CC2)cc1"
Result: 6.33

Query: Look at this molecule and give its reported pKi. "COc1cccc(CCN2CCN(C(=O)Cc3cccc(OC)c3)CC2)c1"
Result: 7.92

Query: Look at this molecule and give its reported pKi. "Clc1ccc(CCN2CCN(CCCc3ccccc3)CC2)cc1Cl"
Result: 7.41

Query: Look at this molecule and give its reported pKi. "NCCN1CCN(CCCc2ccccc2)CC1"
Result: 6.73

Query: Look at this molecule and give its reported pKi. "COc1ccccc1CCN1CCN(CCCc2ccccc2)CC1"
Result: 8.10

Query: Look at this molecule and give its reported pKi. "Nc1ccccc1CCN1CCN(CCCc2ccccc2)CC1"
Result: 7.74

Query: Look at this molecule and give its reported pKi. "O=C(Cc1ccc([N+](=O)[O-])cc1)N1CCN(CCCc2ccccc2)CC1"
Result: 6.78

Query: Look at this molecule and give its reported pKi. "COc1ccccc1CC(=O)N1CCN(CCCc2ccccc2)CC1"
Result: 6.53

Query: Look at this molecule and give its reported pKi. "COc1ccc(CCN2CCN(CCCc3ccccc3)CC2)cc1"
Result: 7.54
